ASSAY_TEXT: Absolute oral bioavailability in oral (5 mg/kg) fed dogs
Assay type: ADME, organism-based, Canis lupus familiaris
MEASUREMENT_SETUP: dog, in vivo

- COMPOUND: "COc1ccc(C2(O)OC(=O)C(c3ccc4c(c3)OCO4)=C2Cc2cc(OC)c(OC)c(OC)c2)cc1 (stereo unspecified) [PD-156707]"
  UNITS: "%"
  bioavailability: 20

---

TARGET: Endothelin receptor type B (Homo sapiens, UniProt P24530)
Sequence (P24530 whole entry): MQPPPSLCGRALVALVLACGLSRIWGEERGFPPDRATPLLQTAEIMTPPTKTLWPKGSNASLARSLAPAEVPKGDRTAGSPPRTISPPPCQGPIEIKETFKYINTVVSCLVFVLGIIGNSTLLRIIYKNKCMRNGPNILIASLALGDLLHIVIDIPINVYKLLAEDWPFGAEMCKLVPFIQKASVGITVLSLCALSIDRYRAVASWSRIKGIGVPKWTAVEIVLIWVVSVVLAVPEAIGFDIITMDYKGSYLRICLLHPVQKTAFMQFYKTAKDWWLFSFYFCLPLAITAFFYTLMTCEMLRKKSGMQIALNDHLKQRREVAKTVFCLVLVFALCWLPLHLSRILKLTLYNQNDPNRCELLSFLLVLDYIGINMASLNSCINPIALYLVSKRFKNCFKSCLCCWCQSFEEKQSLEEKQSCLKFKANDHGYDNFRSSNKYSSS
ASSAY_TEXT: Binding affinity against human cloned Endothelin B receptor expressed in CHO-K1 cells
Format: cell-based
pIC50: −log10 of the molar value.
So basically: pIC50 at 5 or higher? That is satisfied. Lower than 5? That is not satisfied.

- COMPOUND: "COc1cccc(C2(O)OC(=O)C(c3ccc4c(c3)OCO4)=C2Cc2ccccc2)c1 (stereo not drawn)"
  CLASS: "not satisfied"
- COMPOUND: "COc1ccc(C2OC(=O)C(c3ccc4c(c3)OCO4)=C2Cc2cc(OC)c(OC)c(OC)c2)cc1 (stereo not drawn)"
  CLASS: "not satisfied"
- COMPOUND: "COc1ccc(C2(O)OC(=O)C(c3ccc4c(c3)OCO4)=C2Cc2cc(OC)c(OC)c(OC)c2)cc1C (stereo not drawn)"
  CLASS: "satisfied"
- COMPOUND: "COc1ccc(C2(O)OC(=O)C(c3cc(OC)c4c(c3)OCO4)=C2Cc2cc(OC)c(OC)c(OC)c2)cc1 (stereo not drawn)"
  CLASS: "satisfied"
- COMPOUND: "COc1ccc(C2(O)OC(=O)C(c3ccc4c(c3)OCO4)=C2Cc2ccc([N+](=O)[O-])cc2)cc1 (stereo not drawn)"
  CLASS: "not satisfied"
- COMPOUND: "COc1ccc(C2(O)OC(=O)C(c3cc(OC)c4c(c3)OCO4)=C2Cc2ccccc2)cc1C (stereo not drawn)"
  CLASS: "satisfied"
- COMPOUND: "COc1ccc(C2(O)OC(=O)C(c3ccc4c(c3)OCO4)=C2Cc2ccccc2)cc1OC (stereo not drawn)"
  CLASS: "not satisfied"
- COMPOUND: "COc1cc(C2(O)OC(=O)C(c3ccc4c(c3)OCO4)=C2Cc2ccccc2)cc(OC)c1OC (stereo not drawn)"
  CLASS: "satisfied"
- COMPOUND: "COc1ccc(C2(O)OC(=O)C(c3ccc4c(c3)OCO4)=C2Cc2ccc(OC)c(C)c2)cc1 (stereo not drawn)"
  CLASS: "satisfied"
- COMPOUND: "COc1ccc(C2(O)OC(=O)C(c3ccc4c(c3)OCO4)=C2CC2CCCCC2)cc1 (stereo not drawn)"
  CLASS: "satisfied"

This collection of values is drawn from ChEMBL document CHEMBL1129982.
